# Tested on: Staphylococcus epidermidis
# protocol text: MIC (broth microdilution) of peptides, S. epidermidis
# Assay type: cell-based
# applied conditions: mode of three biological replicates
Where a SMILES comes first, the peptide text is derived from it. [ ]: non-standard residue; d: D form.
readout type: MIC (µg/mL)
Write the number in µg/mL without appending the unit.

Task: Which MIC is reported with Staphylococcus epidermidis for this entry: CC[C@@H](C)[C@@H](NC(=O)[C@@H](C)NC(=O)[C@@H](CCCNC(=N)N)NC(=O)[C@@H](Cc1c[nH]c2ccccc12)NC(=O)[C@@H](CCC(N)=O)NC(=O)[C@H](NC(=O)[C@@H](CCCNC(=N)N)NC(=O)[C@@H](Cc1c[nH]c2ccccc12)NC(=O)[C@H](NC(=O)[C@@H](CCCNC(=N)N)NC(=O)[C@H](NC(=O)[C@H](N)CCCNC(=N)N)C(C)C)C(C)C)C(C)C)C(N)=O [AB111-D, rvrvwrvqwrai] (H-[dR][dV][dR][dV][dW][dR][dV][dQ][dW][dR][dA][dI]-NH2) ?
Result: 0.8

====

# System: P. aeruginosa PAO1 biofilms
# protocol text: Checkerboard biofilm synergy of AB103-D with antimicrobials, PAO1
# Assay type: cell-based, Pseudomonas aeruginosa
# applied conditions: in combination with AB103-D; PAO1
readout type: Fold Decrease in concentration of Antibiotic

Task: Fold Decrease in concentration of Antibiotic lookup needed for [H]/N=C(\N/C(=N/[H])NCCCCCCNC(=N)NC(=N)Nc1ccc(Cl)cc1)Nc1ccc(Cl)cc1 [Chlorhexidine] , thanks.
Result: 2-fold

Task: Then this molecule: O=[N+]([O-])[O-].[Ag+] [AgNO3]
Result: 2-fold

Task: Check O=C(O)CN(CCN(CC(=O)O)CC(=O)O)CC(=O)O [EDTA] too.
Result: 64-fold

====

Could you please report measured FIC for the items listed next?
# System: MRSA USA 300 LAC biofilms
# protocol text: Checkerboard biofilm synergy of AB103-D with antimicrobials, MRSA
# Assay type: cell-based, methicillin resistant Staphylococcus aureus
# applied conditions: antibiotic used with AB103-D; MRSA USA 300 LAC; ≤0.5 synergy
No unit in the answer, please; the number alone is enough.

Task: Query (molecule): `CC(C)(O/N=C(\C(=O)N[C@@H]1C(=O)N2C(C(=O)[O-])=C(C[n+]3ccccc3)CS[C@H]12)c1csc(N)n1)C(=O)O` ; field requested: FIC
Result: 0.5

Task: Another molecule: `COc1cc(Cc2cnc(N)nc2N)cc(OC)c1OC`
Result: 0.56

Task: Proceed to `O=[N+]([O-])[O-].[Ag+]`
Result: 1.13

Task: Cool, now `CCN1CCN(C(=O)N[C@@H](C(=O)N[C@@H]2C(=O)N3[C@@H]2SC(C)(C)[C@@H]3C(=O)O)c2ccccc2)C(=O)C1=O`
Result: 0.63

Task: Next record, please: `CN[C@H](CC(C)C)C(=O)N[C@H]1C(=O)N[C@@H](CC(N)=O)C(=O)N[C@H]2C(=O)N[C@H]3C(=O)N[C@H](C(=O)N[C@H](C(=O)O)c4cc(O)cc(O)c4-c4cc3ccc4O)[C@H](O)c3ccc(c(Cl)c3)Oc3cc2cc(c3O[C@@H]2O[C@H](CO)[C@@H](O)[C@H](O)[C@H]2O[C@H]2C[C@](C)(N)[C@H](O)[C@H](C)O2)Oc2ccc(cc2Cl)[C@H]1O`
Result: 0.38

Task: Same again, this time with `[H]/N=C(\N/C(=N/[H])NCCCCCCNC(=N)NC(=N)Nc1ccc(Cl)cc1)Nc1ccc(Cl)cc1`
Result: 0.56

Task: Also, CO/N=C(\C(=O)N[C@@H]1C(=O)N2C(C(=O)[O-])=C(C[N+]3(C)CCCC3)CS[C@H]12)c1csc(N)n1 [Cefepime] please.
Result: 0.38

Task: Okay, and `NC[C@H]1O[C@H](O[C@H]2[C@H](O)[C@@H](O[C@H]3O[C@H](CO)[C@@H](O)[C@H](N)[C@H]3O)[C@H](N)C[C@@H]2N)[C@H](N)C[C@@H]1O` ?
Result: 0.38

Task: Okay, and `CCC[C@@H]1C[C@@H](C(=O)N[C@@H]([C@H]2O[C@H](SC)[C@H](O)[C@@H](O)[C@H]2O)[C@H](C)Cl)N(C)C1` ?
Result: 0.635

Task: Record: `NCC[C@H](O)C(=O)N[C@@H]1C[C@H](N)[C@@H](O[C@H]2O[C@H](CN)[C@@H](O)[C@H](O)[C@H]2O)[C@H](O)[C@H]1O[C@H]1O[C@H](CO)[C@@H](O)[C@H](N)[C@H]1O`
Result: 1

Task: Moving on to the next molecule: `C[C@@H](O)[C@H]1C(=O)N2C(C(=O)O)=C(S[C@@H]3CN[C@H](C(=O)N(C)C)C3)[C@H](C)[C@H]12`
Result: 0.31

Task: Check `C/C(=C\C(=O)OCCCCCCCCC(=O)O)C[C@@H]1OC[C@H](C[C@@H]2O[C@H]2[C@@H](C)[C@H](C)O)[C@@H](O)[C@H]1O` too.
Result: 0.75

Just for reference, patent US20260374818A1 is where these values come from.
